# PROTOCOL DESCRIPTION: Resistance index, ratio of IC50 for antiproliferation activity against human MDA-MB-435/LCC6MDR cells to IC50 for antiproliferation activity against human MDA-MB-435 cells assessed as cell growth inhibition measured after 72 hrs by MTS assay
# Type: functional
MEASURE NAME: Ratio IC50
Keep it simple and answer with nothing but the number.

| SUBSTANCE SMILES | Ratio IC50 |
| --- | --- |
| COc1ccc(-c2cnn(Cc3cc(CN4CCCC4)c(O)c4ncccc34)n2)cc1 | 0.3 |
| Oc1c(CN2CCCC2)cc(Cn2ncc(-c3cccc(Br)c3)n2)c2cccnc12 | 0.4 |
| Oc1c(CN2CCCC2)cc(Cn2ncc(-c3ccc(OCc4ccccc4)cc3)n2)c2cccnc12 | 0.7 |
| COc1ccc(-c2cc(COCc3ccc(C(C)C)cc3)c3cccnc3c2O)cc1 | 1.6 |

Consider the molecule shown here: `CC(C)c1ccc(COCc2cc(-c3cncc4ccccc34)c(O)c3ncccc23)cc1` What is its recorded Ratio IC50?
1.6

###

# Tested on: MDA-MB-453
# PROTOCOL DESCRIPTION: cells
# CONDITION DESCRIPTION: Homo sapiens, MDA-MB-453, 72 h
MEASURE NAME: pIC50
When answering, recall that pIC50 equals minus log10 of the concentration in mol/L, and write that number alone.

Field: example entries. Status: answers known.
| SUBSTANCE SMILES | EXPERIMENTAL RESULT |
| --- | --- |
| CC(C)c1ccc(COCc2cc(-c3ccnc4ccccc34)c(O)c3ncccc23)cc1 | 5.77 |
| Oc1c(CN2CCCC2)cc(Cn2cnc(-c3ccccc3)c2)c2cccnc12 | 5.51 |
| Cc1cccc(-c2cc(COCc3ccc(C(C)C)cc3)c3cccnc3c2O)c1 | 5.77 |

Now for another entry.
Using the record for `CC(C)c1ccc(COCc2cc(-c3ccc(C(F)(F)F)cc3)c(O)c3ncccc23)cc1` , report its pIC50.
5.36

###

Recorded IC50 by entry
# System: MDA-MB-435
# PROTOCOL DESCRIPTION: cells
# CONDITION DESCRIPTION: Homo sapiens, MDA-MB-435, 72 h
Quick note: give the figure in µM, leave out the unit.

| SUBSTANCE SMILES | IC50 [µM] |
| --- | --- |
| Oc1c(CN2CCCCCC2)cc(Cn2ncc(-c3ccc(C(F)(F)F)cc3)n2)c2cccnc12 | 3.1 |
| Oc1c(CN2CCNCC2)cc(Cn2ncc(-c3ccc(Br)cc3)n2)c2cccnc12 | 4.7 |
| N#Cc1ccc(-c2cnn(Cc3cc(CN4CCCC4)c(O)c4ncccc34)n2)cc1 | 5.9 |

Now consider the entry below.
Name the recorded IC50 for `Oc1c(CN2CCCC2)cc(Cn2ncc(-c3ccc(C(F)(F)F)cc3)n2)c2cccnc12` .
4.1
